- Assay text: qHTS of TDP-43 Inhibitors; note: nearly all actives have a fitted effect of over 50% in size
- Condition summary: TDP-43 expressing yeast growth rescue, BacTiter-Glo, 24 h; series mostly up to 46.1 µM
The campaign covered roughly 410,000 compounds. About 7,200 (1.8%) were called active. Inconclusive results (about 7%) are left out. Calls come from the whole dose curve; as a rule, active = well fitted activation curve with a large enough effect; inconclusive = small, poorly fitted or top-dose-only effect, or another doubt; inactive = no such curve, though single readings can be large or run the other way. This is one part of a sample in which actives are shown more often than they occur.
Select the matching outcome among active, inactive

CC(C)c1ccc(NC(=O)C2CCN(c3nc(-c4ccc(C(C)C)cc4)no3)CC2)cc1 :: inactive
CC(C)(C)c1ccc(Oc2ccc(N)cc2)cc1 :: active

Read the next record carefully.
// query Hey, what did the test say about N#Cc1nc(/C=C/c2ccc(F)cc2)oc1NC1CCCCC1 ?
// result inactive

====

- Assay text: qHTS of TDP-43 Inhibitors; note: nearly all actives have a fitted effect of over 50% in size
- Condition summary: TDP-43 expressing yeast growth rescue, BacTiter-Glo, 24 h; series mostly up to 46.1 µM
The campaign covered roughly 410,000 compounds. About 7,200 (1.8%) were called active. Another 7% or so got no clear call; they are omitted. Calls come from the whole dose curve; as a rule, active = well fitted activation curve with a large enough effect; inconclusive = small, poorly fitted or top-dose-only effect, or another doubt; inactive = no such curve, though single readings can be large or run the other way. The full list was thinned out, with actives kept by preference.
Tick one outcome: yes (active), no (inactive)

Take a look at these entries with their results.
COc1ccccc1-c1cc(C(F)(F)F)nc(S(=O)(=O)CCCC(=O)Nc2cc(C)ccc2O)n1 :: no
O=C(NCCc1ccccn1)c1ccc(COc2ccccc2)o1 :: no
COc1ccc(-c2nc(CCNC(=O)c3ccc(Br)o3)cs2)cc1 :: yes

// query So what was the verdict on Cc1ccccc1Nc1nc(N)nc(COC(=O)CCC(=O)c2ccc(F)cc2)n1 in this test?
// result no

====

- Assay text: qHTS of TDP-43 Inhibitors; note: nearly all actives have a fitted effect of over 50% in size
- Condition summary: TDP-43 expressing yeast growth rescue, BacTiter-Glo, 24 h; series mostly up to 46.1 µM
Screen size: about 410,000 compounds; about 7,200 (1.8%) were called active. Another 7% or so got no clear call; they are omitted. The call rests on the fitted dose curve; in most records, active means well fitted activation curve with a large enough effect; inconclusive means small, poorly fitted or top-dose-only effect, or another doubt; inactive means no such curve, though single readings can be large or run the other way. This is one part of a sample in which actives are shown more often than they occur.
A correct response names exactly one class from 1.0 = active, 0.0 = inactive

Reference set, count: 5
CC(C)Cc1ccc(-c2cc3nc(NCc4cccc(Cl)c4)ccn3n2)cc1 :: 0.0
CS(=O)(=O)N(CC(=O)Nc1ccc(F)cc1)C1CCCCC1 :: 0.0
COc1cccc(N2CCN(C(=O)CCCCCn3c(=O)[nH]c4ccccc4c3=O)CC2)c1 :: 0.0
CCc1cc2c(cc3c(=O)n(CC(=O)NCc4cccc(Cl)c4)nc(CC)n32)s1 :: 0.0
CCOc1ccc(C(=O)/C=C/c2cn(CC(O)CN3CCCCCC3)c3ccccc23)cc1 (centres undefined) :: 0.0

// query What call does the record list for Cc1cc(C)c(-c2n[nH]c3c2C(c2ccccc2F)N(CCO)C3=O)c(O)c1 (centres undefined) ?
// result 0.0

// query Test call for this compound, please: CC(C)c1ccc(OCC(=O)N(Cc2ccc(N(C)C)cc2)C2CCS(=O)(=O)C2)cc1 (centres undefined)
// result 0.0

// query Could you kindly confirm the outcome this assay logged for Fc1ccc2nc(Nc3nc4c(s3)CCCC4)sc2c1 ?
// result 1.0

// query Hi team, can someone confirm the assay call for CCS(=O)(=O)N1CCC(n2c(C)nc3cccnc32)CC1 ?
// result 0.0
